Molecular target: recombinant soluble homotrimeric HA, A/chicken/Vietnam/NCVD-016/08 (H5N1) (influenza A virus A/chicken/Vietnam/NCVD-016/2008 (H5N1))
Test: microarray, trimeric HA, transfection supernatant
Details: remark: other sources report otherwise
binders and their reported Trimeric HA Binding RLU
Your answer is read as RLU, so omit the unit and give the number.

Here is how some binders turned out for Trimeric HA Binding RLU.
Q: Data request, read-out Trimeric HA Binding RLU, for TCN-538 (3206_O17) (antibody, V domains shown) VH: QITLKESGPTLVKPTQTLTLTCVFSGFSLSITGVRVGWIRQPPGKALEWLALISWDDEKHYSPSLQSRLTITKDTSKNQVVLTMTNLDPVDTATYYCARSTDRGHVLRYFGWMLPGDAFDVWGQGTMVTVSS VL: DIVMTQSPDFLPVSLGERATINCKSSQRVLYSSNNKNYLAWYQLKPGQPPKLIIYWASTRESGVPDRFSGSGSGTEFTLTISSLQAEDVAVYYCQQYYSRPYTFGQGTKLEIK
Ans: 2950

Q: Data request, read-out Trimeric HA Binding RLU, for TCN-554 (5277_M05) (antibody, V domains shown) VH: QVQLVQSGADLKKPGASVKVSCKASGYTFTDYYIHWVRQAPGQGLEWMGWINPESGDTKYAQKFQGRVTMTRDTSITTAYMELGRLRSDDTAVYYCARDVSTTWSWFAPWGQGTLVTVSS VL: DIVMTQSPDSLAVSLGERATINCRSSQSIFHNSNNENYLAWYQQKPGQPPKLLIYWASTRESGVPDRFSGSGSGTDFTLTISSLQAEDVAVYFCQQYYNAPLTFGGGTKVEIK
Ans: 2710

Could you now consider this next binder?
Q: Data request, read-out Trimeric HA Binding RLU, for TCN-543 (5081_G23) (antibody, V domains shown) VH: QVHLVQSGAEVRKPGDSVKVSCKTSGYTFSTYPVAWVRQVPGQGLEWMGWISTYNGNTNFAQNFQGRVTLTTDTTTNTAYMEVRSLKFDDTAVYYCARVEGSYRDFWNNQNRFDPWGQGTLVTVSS VL: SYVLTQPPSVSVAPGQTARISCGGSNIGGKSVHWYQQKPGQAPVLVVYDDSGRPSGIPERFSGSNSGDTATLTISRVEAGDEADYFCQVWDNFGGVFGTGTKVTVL
Ans: 5880
